Reported Metric: melting point

Chem Smiles: CNc1nc(-c2cccc(CCc3ccccc3)c2)c2cc(OC)c(OC)cc2n1
melting point: 95 to 97 °C

// sample CNc1nc(-c2cccc(Oc3ccccc3)c2)c2cc(OC)c(OC)cc2n1 , its melting point was 157 to 159 °C

The compound listed as CNc1nc(-c2cccc(NC(=O)c3ccc(Cl)cc3)c2)c2cc(OC)c(OC)cc2n1 has a reported melting point of 193 to 195 °C

The compound listed as CNc1nc(-c2cccc(-c3cncc(-c4ccccc4)c3)c2)c2cc(OC)c(OC)cc2n1 has a reported melting point of 200 to 202 °C

So, CNc1ccc(C#Cc2cccc(-c3nc(NC)nc4cc(OC)c(OC)cc34)c2)cn1 ? Its melting point was 136 to 138 °C

Lab note: CNc1nc(-c2cccc(-c3cccc(SC)c3)c2)c2cc(OC)c(OC)cc2n1 gave melting point of 195 to 197 °C

The compound identified as CNc1ccc(C#Cc2cncc(-c3nc(NC)nc4cc(OC)c(OC)cc34)c2)cn1 registered its melting point at 160 to 162 °C

// melting point value for CNc1nc(-c2cccc(-c3ccc4nccn4c3)c2)c2cc(OC)c(OC)cc2n1 : 237 to 239 °C

Consider CNc1nc(-c2cccc(NC(=O)C3CC3)c2)c2cc(OC)c(OC)cc2n1 . Its measured melting point is 205 to 207 °C

Reported melting point for CNc1nc(-c2cccc(-c3ccc(C)c(C)c3)c2)c2cc(OC)c(OC)cc2n1 was 149 to 151 °C

For reference, reported melting point for CNc1nc(-c2cccc(NC(=O)c3ccnc(N4CCCC4)c3)c2)c2cc(OC)c(OC)cc2n1 stands at 135 to 137 °C

melting point in this record for CNc1nc(-c2cccc(NC(=O)c3ccccc3)c2)c2cc(OC)c(OC)cc2n1 : 201 to 203 °C

Record CNc1nc(-c2cncc(Br)c2)c2cc(OC)c(OC)cc2n1 , field melting point: 228 to 230 °C

The compound identified as CNc1nc(-c2cccc(NC(=O)c3ccc(O)cc3)c2)c2cc(OC)c(OC)cc2n1 registered its melting point at 178 to 180 °C
